Tested on: A. baumannii ATCC 19606
Assay: MIC, broth microdilution (CO-ADD), A. baumannii
Format: cell-based, Acinetobacter baumannii
Settings: Acinetobacter baumannii, ATCC19606, top dose 32 µg/mL
Would you mind telling me the reported MIC of each entry?

(Q) What measured MIC is associated with O=C(NCCCNCCCCCCCNCCCNC(=O)c1c[nH]c2ccccc12)c1c[nH]c2ccccc12.O=C(O)C(F)(F)F.O=C(O)C(F)(F)F [Compound 12c] on A. baumannii ATCC 19606?
(A) > 42 µM

(Q) And then COc1cccc2c(C(=O)NCCCNCCCCNCCCNC(=O)c3c[nH]c4c(OC)cccc34)c[nH]c12 [Compound 17a] , what is it?
(A) > 41 µM

(Q) Do the same for Cc1ccc2[nH]cc(C(=O)NCCCNCCCCCCCCCCCCNCCCNC(=O)c3c[nH]c4ccc(C)cc34)c2c1.O=C(O)C(F)(F)F.O=C(O)C(F)(F)F [Compound 15f] please
(A) ≤ 0.29 µM

(Q) Do the same for O=C(NCCCNCCCCCCNCCCNC(=O)c1c[nH]c2c(F)cccc12)c1c[nH]c2c(F)cccc12 [Compound 16b] please
(A) > 41 µM

(Q) For O=C(NCCCNCCCCCCCCCCCCNCCCNC(=O)c1c[nH]c2ccc(Br)cc12)c1c[nH]c2ccc(Br)cc12.O=C(O)C(F)(F)F.O=C(O)C(F)(F)F [Compound 13f] then?
(A) 2.03 µM

(Q) One more compound: COc1cccc2c(C(=O)NCCCNCCCCCCCCNCCCNC(=O)c3c[nH]c4c(OC)cccc34)c[nH]c12 [Compound 17d]
(A) > 38 µM

(Q) And the next one, COc1ccc2[nH]cc(C(=O)NCCCNCCCCNCCCNC(=O)c3c[nH]c4ccc(OC)cc34)c2c1 [Compound 14a] ?
(A) > 41 µM

(Q) Another: Cc1cccc2c(C(=O)NCCCNCCCCCCNCCCNC(=O)c3c[nH]c4c(C)cccc34)c[nH]c12 [Compound 18b]
(A) > 41 µM

(Q) Next: O=C(NCCCNCCCCNCCCNC(=O)c1c[nH]c2c(F)cccc12)c1c[nH]c2c(F)cccc12 [Compound 16a]
(A) > 43 µM

(Q) Try the compound Cc1cccc2c(C(=O)NCCCNCCCCCCCCCCCCNCCCNC(=O)c3c[nH]c4c(C)cccc34)c[nH]c12.O=C(O)C(F)(F)F.O=C(O)C(F)(F)F [Compound 18f]
(A) 9.33 µM

(Q) Input O=C(NCCCNCCCCCCNCCCNC(=O)c1c[nH]c2ccccc12)c1c[nH]c2ccccc12.O=C(O)C(F)(F)F.O=C(O)C(F)(F)F [Compound 12b]
(A) > 43 µM

(Q) And the next one, COc1ccc2[nH]cc(C(=O)NCCCNCCCCCCCNCCCNC(=O)c3c[nH]c4ccc(OC)cc34)c2c1.O=C(O)C(F)(F)F.O=C(O)C(F)(F)F [Compound 14c] ?
(A) > 39 µM

(Q) Subsequent entry: O=C(NCCCNCCCCCCCCCCNCCCNC(=O)c1c[nH]c2c(F)cccc12)c1c[nH]c2c(F)cccc12 [Compound 16e]
(A) > 38 µM

(Q) Further, for Cc1ccc2[nH]cc(C(=O)NCCCNCCCCCCCNCCCNC(=O)c3c[nH]c4ccc(C)cc34)c2c1 [Compound 15c] ?
(A) > 41 µM
